# experiment-summary: Stability in human liver microsomes
# Type: in vitro ADME
# condition-context: half-life
// reported Stability in liver microsomes HLM per item

For orientation, consider the following solved cases.
- compound: "COC(=O)[N-]S(=O)(=O)c1ccc(CC(C)C)cc1-c1ccc(Cn2ccnc2C(C)(C)O)cc1.[K+] [Example 8B]"
  Stability in liver microsomes HLM: ">60 min"
- compound: "COC(=O)NS(=O)(=O)c1sc(CC(C)C)nc1-c1ccc(Cn2ccnc2C(C)(C)C)cc1 [Example 3]"
  Stability in liver microsomes HLM: ">60 min"
- compound: "COC(=O)[N-]S(=O)(=O)c1sc(CC(C)C)cc1-c1ccc(Cn2ccnc2C(C)(C)C)cc1.[K+] [Example 12B]"
  Stability in liver microsomes HLM: ">60 min"

Look up Stability in liver microsomes HLM: CCCc1ccc(S(=O)(=O)[N-]C(=O)OC)c(-c2ccc(Cn3ccnc3C(C)(C)O)cc2)c1.[K+] [Example 30B]
>60 min

Now the same for CCCCOC(=O)[N-]S(=O)(=O)c1sc(CC(C)C)cc1-c1ccc(Cn2ccnc2)cc1.[Na+] [Example 13, reference compound]
36 min

Follow-up item: CCCCOC(=O)NS(=O)(=O)c1sc(CCC)nc1-c1ccc(Cn2ccnc2C(C)C)cc1 [Example 15]
>60 min

Now consider CCCCOC(=O)NS(=O)(=O)c1sc(CC(C)C)nc1-c1ccc(Cn2ccnc2C(C)(C)C)cc1 [Example 4] and answer again.
45 min

Just for reference, patent US20230159467A1 is where these values come from.
